Data origin: patent US20240101576A1

Listed compounds paired with reported pIC50
# experimental system: EGFR exon 20 SVD Ins D770_N771 (Ba/F3 cells) (Homo sapiens, UniProt P00533, INS770SVD)
# Construct: expressed in transfected cells; host or cells: Ba/F3 (murine pro-B cells), retroviral transduction, puromycin selection, IL3-independent pool
# Sequence (P00533 with tags, fused parts or gaps INS770SVD): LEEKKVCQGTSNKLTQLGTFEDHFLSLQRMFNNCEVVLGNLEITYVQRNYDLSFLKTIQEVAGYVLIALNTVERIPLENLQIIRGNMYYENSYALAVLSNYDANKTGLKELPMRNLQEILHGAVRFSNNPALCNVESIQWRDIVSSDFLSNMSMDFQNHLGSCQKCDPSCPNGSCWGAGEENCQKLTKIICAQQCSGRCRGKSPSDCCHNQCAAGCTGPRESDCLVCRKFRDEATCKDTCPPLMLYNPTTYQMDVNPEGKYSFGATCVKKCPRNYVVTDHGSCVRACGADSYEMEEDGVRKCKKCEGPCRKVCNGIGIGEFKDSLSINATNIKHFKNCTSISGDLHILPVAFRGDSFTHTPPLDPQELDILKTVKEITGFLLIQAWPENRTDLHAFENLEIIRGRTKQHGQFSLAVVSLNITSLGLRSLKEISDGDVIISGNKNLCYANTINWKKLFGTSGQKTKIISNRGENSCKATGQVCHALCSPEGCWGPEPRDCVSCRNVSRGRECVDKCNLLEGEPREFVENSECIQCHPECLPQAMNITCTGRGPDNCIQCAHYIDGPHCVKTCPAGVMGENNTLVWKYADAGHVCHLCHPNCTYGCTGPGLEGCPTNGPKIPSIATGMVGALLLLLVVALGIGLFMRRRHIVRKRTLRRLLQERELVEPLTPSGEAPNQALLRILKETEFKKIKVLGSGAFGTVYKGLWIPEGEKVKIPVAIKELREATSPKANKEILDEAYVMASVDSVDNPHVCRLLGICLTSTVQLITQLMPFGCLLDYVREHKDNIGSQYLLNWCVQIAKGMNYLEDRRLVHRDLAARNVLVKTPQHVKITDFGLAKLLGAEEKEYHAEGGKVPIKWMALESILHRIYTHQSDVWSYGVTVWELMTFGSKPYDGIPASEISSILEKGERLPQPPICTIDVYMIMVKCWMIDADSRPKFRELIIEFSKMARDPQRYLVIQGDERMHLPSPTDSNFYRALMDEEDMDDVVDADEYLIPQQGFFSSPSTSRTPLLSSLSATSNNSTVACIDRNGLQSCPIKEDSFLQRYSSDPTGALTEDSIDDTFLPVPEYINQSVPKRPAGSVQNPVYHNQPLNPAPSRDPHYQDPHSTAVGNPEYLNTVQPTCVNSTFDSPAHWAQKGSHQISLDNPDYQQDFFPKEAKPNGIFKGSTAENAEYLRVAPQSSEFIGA
# assay protocol: Inhibitor activity on EGFR-dependent cell growth (CellTiter-Glo, 72 h), Ba/F3 EGFR exon 20 SVD Ins
# Format: cell-based
# measurement context: read-out: BaF3 SVD IC50
pIC50: −log10 of the molar value.

Consider the reported pIC50 for these compounds:
>  <compound>
C=CC(=O)N1CCC2(CC1)CNC(=O)c1c2[nH]c(-c2ccncc2F)c1Nc1ccc(F)c(Cl)c1

>  <measured endpoint>
pIC50

>  <experimental result>
> 7.00

$$$$
>  <compound>
COc1c(Cl)cccc1Nc1c(-c2ccnc3ccc(OCC(F)(F)F)nc23)[nH]c2c1C(=O)NCC2

>  <measured endpoint>
pIC50

>  <experimental result>
> 7.00

$$$$
>  <compound>
CCc1c(Cl)cccc1Nc1c(-c2ccnc3cnc(OC)nc23)[nH]c2c1C(=O)NCC2

>  <measured endpoint>
pIC50

>  <experimental result>
> 7.00

$$$$
>  <compound>
COc1cccc(Nc2c(-c3ccnc(N)n3)[nH]c3c2C(=O)NCC3)c1Cl

>  <measured endpoint>
pIC50

>  <experimental result>
< 6.00

$$$$

Query: Which pIC50 is listed for COc1c(Cl)cccc1Nc1c(-c2ccnc3[nH]cnc23)[nH]c2c1C(=O)NCC2 ?
Response: > 7.00

Query: Which pIC50 is listed for COc1nccc(-c2[nH]c3c(c2Nc2cccc(Cl)c2OC)C(=O)NCC3)n1 ?
Response: < 6.00

Query: Which pIC50 is listed for COc1c(Cl)cccc1Nc1c(-c2ccnc3ccc(OC4CC4)nc23)[nH]c2c1C(=O)NC[C@@H]2C ?
Response: > 7.00

Query: Which pIC50 is listed for C=CC(=O)N1CCC2(CC1)CNC(=O)c1c2[nH]c(-c2ccncc2F)c1Nc1ccc(Cl)c(Cl)c1 ?
Response: < 6.00

Query: Which pIC50 is listed for COC[C@@H]1CNC(=O)c2c1[nH]c(-c1ccnc3ccc(OC)nc13)c2Nc1cccc(Cl)c1OC (single isomer, unassigned) ?
Response: > 7.00

Query: Which pIC50 is listed for COc1c(Cl)cccc1Nc1c(-c2ccncc2)[nH]c2c1C(=O)NC[C@H]2C[C@@H]1CN(C)CCO1 ?
Response: > 7.00

Query: Which pIC50 is listed for COc1c(Cl)cccc1Nc1c(-c2ccncc2F)[nH]c2c1C(=O)NC[C@H]2CC(C)(C)O ?
Response: > 7.00

Query: Which pIC50 is listed for COc1c(Cl)cccc1Nc1c(-c2ccnc(N)n2)[nH]c2c1C(=O)NC[C@H]2C[C@H]1COCCO1 ?
Response: > 7.00

Query: Which pIC50 is listed for C=CC(=O)N1CCC2(CC1)CNC(=O)c1c2[nH]c(-c2ccncc2F)c1Nc1cccc(F)c1CC ?
Response: > 7.00

Query: Which pIC50 is listed for COc1c(Cl)cccc1Nc1c(-c2ccncc2F)[nH]c2c1C(=O)NC[C@H]2CCF ?
Response: 6.00 to 7.00
